Task for the reader: assign each of the following binders its reported Kd.
system: T1, dNELF-E (Drosophila, UniProt P92204 1-280)
T1 sequence: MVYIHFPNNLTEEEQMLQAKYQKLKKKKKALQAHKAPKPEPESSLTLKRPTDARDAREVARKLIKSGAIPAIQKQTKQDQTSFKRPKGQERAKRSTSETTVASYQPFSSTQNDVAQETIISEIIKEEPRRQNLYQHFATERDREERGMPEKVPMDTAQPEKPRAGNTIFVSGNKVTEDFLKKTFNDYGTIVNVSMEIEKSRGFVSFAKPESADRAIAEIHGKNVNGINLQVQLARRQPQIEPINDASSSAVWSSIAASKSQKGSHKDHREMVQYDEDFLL
experiment_notes: F-EMSA; 10 mM HEPES-NaOH pH 7.5, 100 mM NaCl, 25 mM KCl, 1 mM MgCl2, 0.02% Tween-20, 0.01% IGEPAL CA-630, 10 µg/ml yeast tRNA; 2 nM RNA, 0-2000 nM protein, 1-2 h, binding temperature not stated; gel 5% acrylamide 0.5X TBE at 4 °C
experimental_parameters: protein: recombinant; tags: N-terminal His6 (pHIS-parallel1); label: 3' fluorescein (5-thiosemicarbazide); putative K-turn stem-loop
Give bare numbers, in nM.

binder: Napt25min (structured_RNA) RNA: GGUCUCCAACUGAGGAUACCGCUCGAGGAAGCGAGUGGCGAUUUGGAGACCU
unit_abbreviation: nM
Kd: 53

Now turn to the next binder.
Q: For GGCCCCACUGAGGAUGCCCACGGGCGAUUGGGGCCA (structured_RNA) [Napt1min] , what is its reported Kd?
Ans: 44

Recorded values, source paper PMC3894171.
